Consider the following compounds; for each one, report its difference.
test system: Danio rerio larvae (5 dpf); experiment: difference in combined optomotor response to red, green and blue moving lines vs DMSO (percentage points); higher = stronger optomotor response than DMSO; settings: 10 µM; exposure time 6 h
Where a name gives a salt, the structure may show the parent alone.
// response body must contain only the number

Exercise: // Input: C=CCN1CC[C@]23c4c5ccc(O)c4O[C@H]2[C@@H](OCCOCCOCCOCCOCCOCCOCCOC)CC[C@@]3(O)[C@H]1C5 [Naloxegol (oxalate)] . Output its difference only.
Solution: -4.82

Exercise: Please report difference for the following compound: CN(C)C(=O)Oc1ccc[n+](C)c1 [Pyridostigmine (bromide)]
Solution: 2.09

Exercise: Using known records, supply difference for CC(C)C[C@H]1C(=O)N2CCC[C@H]2[C@]2(O)O[C@](NC(=O)[C@@H]3C=C4c5cccc6[nH]c(Br)c(c56)C[C@H]4N(C)C3)(C(C)C)C(=O)N12 [Bromocriptine (mesylate)]
Solution: -3.6

Exercise: Please list difference recorded for the compound N[C@@H]1C[C@H]1c1ccccc1 [Tranylcypromine (hydrochloride)]
Solution: 1.86

====

system: Danio rerio larvae (5 dpf); assay: difference in habituation to acoustic stimuli vs DMSO (percentage points); higher = more habituation than DMSO; conditions: 10 µM; exposure time 6 h
Structures can show the parent of a compound that is named as a salt.
measured metric: difference in habituation to acoustic stimuli
Enter the number alone.

Exercise: Report difference in habituation to acoustic stimuli, nothing else, for this compound: C=CCN1CC[C@]23c4c5ccc(O)c4O[C@H]2C(=O)CC[C@@]3(O)[C@H]1C5 [Naloxone (hydrochloride)]
Solution: 1.98

Exercise: Give difference in habituation to acoustic stimuli for Cn1c(CCCC(=O)O)nc2cc(N(CCCl)CCCl)ccc21 [Bendamustine (hydrochloride)]
Solution: -3.41

Exercise: Answer with the recorded difference in habituation to acoustic stimuli of CC(NC(C)(C)C)C(=O)c1cccc(Cl)c1 (stereo not drawn) [Bupropion (hydrochloride)] only.
Solution: 2.84

Exercise: Look up and state reported difference in habituation to acoustic stimuli for N[C@@H](Cc1ccc(N(CCCl)CCCl)cc1)C(=O)O [Melphalan]
Solution: -1.58

Exercise: Determine from records and report difference in habituation to acoustic stimuli for CC[C@@H](C(N)=O)N1CCCC1=O [Levetiracetam]
Solution: 4.14

Exercise: Give recorded difference in habituation to acoustic stimuli. O=C(O[C@H]1C[C@H]2CC[C@@H](C1)[N+]21CCCC1)C(O)(c1ccccc1)c1ccccc1 [Trospium (chloride)]
Solution: -0.832

Exercise: Item O=c1[nH]c2ccccc2n1C1CCN(CCCC(c2ccc(F)cc2)c2ccc(F)cc2)CC1 [Pimozide] : provide difference in habituation to acoustic stimuli
Solution: -11

Exercise: Return difference in habituation to acoustic stimuli (reported value) for this compound: N[C@@H]1C[C@H]1c1ccccc1 [Tranylcypromine (hydrochloride)]
Solution: -1.86

Exercise: Provide difference in habituation to acoustic stimuli value for the following compound: NCC(CC(=O)O)c1ccc(Cl)cc1 (racemic) [(±)-Baclofen]
Solution: -0.192

Exercise: For C=C1C[C@@H]2[C@H](CC[C@]3(C)C(=O)CC[C@@H]23)[C@@]2(C)C=CC(=O)C=C12 [Exemestane] , write its difference in habituation to acoustic stimuli.
Solution: -0.126

Exercise: Query difference in habituation to acoustic stimuli for CCN(C(C)=O)c1cccc(-c2ccnc3c(C#N)cnn23)c1 [Zaleplon]
Solution: -1.42

Exercise: Provide one value: measured difference in habituation to acoustic stimuli of CCOC(=O)CC(SP(=S)(OC)OC)C(=O)OCC (stereo not drawn) [Malathion]
Solution: 1.62

Exercise: In one line, give reported difference in habituation to acoustic stimuli of the entry O=P1(N(CCCl)CCCl)NCCCO1 (stereo not drawn) [Cyclophosphamide (hydrate)] .
Solution: -0.439

Exercise: Answer with the recorded difference in habituation to acoustic stimuli of COc1cc2c(cc1OC)C1CC(=O)C(CC(C)C)CN1CC2 (stereo not drawn) [Tetrabenazine] only.
Solution: -2.68

Exercise: Identify measured difference in habituation to acoustic stimuli associated with CN1[C@@H]2CC[C@H]1C[C@@H](OC(=O)C(CO)c1ccccc1)C2 (stereo partly drawn) [Atropine]
Solution: -0.323

Exercise: Complete the entry with difference in habituation to acoustic stimuli for ClC1C(Cl)C(Cl)C(Cl)C(Cl)C1Cl (stereo not drawn) [γ-Lindane]
Solution: -7.56

Exercise: Return difference in habituation to acoustic stimuli (reported value) for this compound: CCN(C)C(=O)Oc1cccc([C@H](C)N(C)C)c1 [Rivastigmine (tartrate)]
Solution: -3.03

Exercise: Identify measured difference in habituation to acoustic stimuli associated with O=[N+]([O-])O[C@H]1CO[C@H]2[C@@H]1OC[C@H]2O[N+](=O)[O-] [Isosorbide Dinitrate]
Solution: 1.13
